experimentalTarget: EGFR on the surface of human tumour cells (A431, H292) (human, UniProt P00533 25-1210)
assayProcedure: cell-based or functional assay
endpointLabel: % inhibition of EGFR phosphorylation at 100 nM binder, cell-based assay (%)

>>> quantitativereadout("E13 (designed binder) 10Fn3 domain: MGVSDVPRDLEVVAATPTSLLISWQVPRPMYQYYRITYGETGGNSPVQEFTVPGQVYTATISGLKPGVDYTITVYAVTDSYNPATHEYKYHQTPISINYRTEIDKPSQ")
86.7
>>> quantitativereadout("E12 (designed binder) 10Fn3 domain: MGVSDVPRDLEVVAATPTSLLISWQVPRPMYQYYRITYGETGGNSPVQEFTVPHDVYTATISGLKPGVDYTITVYAVTDSYNPATHEYKYHQTPISINYRTEIDKPSQ")
76.5
>>> quantitativereadout("E9 (designed binder) 10Fn3 domain: MGVSDVPRDLEVVAATPTSLLISWEANPSRYQYYRITYGETGGNSPVQEFTVPHDLNTATISGLKPGVDYTITVYAVTDSYNPATHEYKYHQTPISINYRTEIDKPSQ")
77.3
>>> quantitativereadout("E6 (designed binder) 10Fn3 domain: MGVSDVPRDLEVVAATPTSLLISWQVPRPMYQYYRITYGETGGNSPVQEFTVPYDVYTATISGLKPGVDYTITVYAVTDSYNPATHEYKYHQTPISINYRTEIDKPSQ")
80

Data provenance is patent US20180037631A1.
